assay-comment: Oral bioavailability in mouse (dose 2 mg/kg)
Format: ADME, organism-based
protocol-conditions: in vivo
reported-endpoint: bioavailability (%)

molecule	reported-endpoint	recorded-value
CCC(CC)C(=O)Nc1sc(-c2nc(Cc3ccc(Cl)cc3Cl)no2)c(C)c1C#N	bioavailability	36
CCC(CC)C(=O)Nc1sc2c(c1C#N)CCC(N(C)Cc1ccc(Cl)cc1Cl)C2 (stereo not drawn)	bioavailability	9.2
CCC(CC)C(=O)Nc1sc(-c2nc(CC(C)C)no2)c(C)c1C#N	bioavailability	39

----------
assay-target: Glucagon receptor (Homo sapiens)
Sequence (P47871 whole entry): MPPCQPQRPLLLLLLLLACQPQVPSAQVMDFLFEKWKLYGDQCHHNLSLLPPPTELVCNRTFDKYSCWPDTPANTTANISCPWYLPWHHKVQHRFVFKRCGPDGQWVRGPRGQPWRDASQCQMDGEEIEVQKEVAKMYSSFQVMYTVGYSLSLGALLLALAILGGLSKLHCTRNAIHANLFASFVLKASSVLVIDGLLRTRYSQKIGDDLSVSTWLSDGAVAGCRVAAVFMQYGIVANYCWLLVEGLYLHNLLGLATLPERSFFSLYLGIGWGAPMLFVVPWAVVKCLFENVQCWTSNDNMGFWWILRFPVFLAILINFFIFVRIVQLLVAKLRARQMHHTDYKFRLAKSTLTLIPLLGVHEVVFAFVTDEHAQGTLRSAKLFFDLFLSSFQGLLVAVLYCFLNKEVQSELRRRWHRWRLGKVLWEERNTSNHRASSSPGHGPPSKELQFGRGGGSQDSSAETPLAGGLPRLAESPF
assay-comment: Inhibitory concentration towards binding of [125I]glucagon to the human glucagon receptor expressed in CHO cells
Assay type: cell-based
reported-endpoint: IC50

compound	reported-endpoint	recorded-value
CCC(CC)C(=O)Nc1sc2c(c1C#N)CCC(N(C)Cc1ccccc1)C2 (configuration not stated)	IC50	3820 nM
CCC(CC)C(=O)Nc1sc2c(c1C#N)CCC(N(C)C1CCCc3ccccc31)C2 (single isomer, unassigned; form 2)	IC50	118 nM
CCC(CC)C(=O)Nc1sc2c(c1C#N)CCC(N(C)Cc1ccc(Cl)cc1Cl)C2 (configuration not stated)	IC50	92 nM
CCC(CC)C(=O)Nc1sc(-c2nc(Cc3ccc(Cl)cc3Cl)no2)c(C)c1C#N	IC50	89 nM
CCC(CC)C(=O)Nc1sc2c(c1C#N)CCC(N(C)C1CCCc3ccccc31)C2 (single isomer, unassigned; form 1)	IC50	139 nM
CCC(CC)C(=O)Nc1sc(C(=O)N(Cc2ccc(Cl)cc2Cl)C(C)C)c(C)c1C#N	IC50	153 nM
CCC(CC)C(=O)Nc1sc2c(c1C#N)CCC(N(Cc1ccc(Cl)cc1Cl)C(C)C)C2 (configuration not stated)	IC50	129 nM
CCC(CC)C(=O)Nc1sc2c(c1C#N)CCC(C(C)(C)CC)C2 (configuration not stated)	IC50	181 nM
CCC(CC)C(=O)Nc1sc(-c2nnc(CC(C)C)o2)c(C)c1C#N	IC50	3210 nM
CCC(C)(C)C1CCc2c(sc(NC(=O)c3ccc(Br)cc3)c2C#N)C1 (configuration not stated)	IC50	> 20000 nM
CCC(CC)C(=O)Nc1sc2c(c1C(N)=O)CCC(C(C)(C)CC)C2 (configuration not stated)	IC50	870 nM
CCC(CC)C(=O)Nc1sc(-c2nc(CC(C)C)no2)c(C)c1C#N	IC50	368 nM

----------
assay-target: Glucagon receptor (Homo sapiens)
assay-comment: Inhibition of glucagon induced cAMP accumulation in human glucagon receptor transfected CHO cells
Type: functional, cell-based
pIC50: −log10 of the molar value.
Values of pIC50 greater than or equal to 7 map to true; values below map to false.

compound	class
CCC(CC)C(=O)Nc1sc(C(=O)N(Cc2ccc(Cl)cc2Cl)C(C)C)c(C)c1C#N	true
CCC(CC)C(=O)Nc1sc(-c2nc(CC(C)C)no2)c(C)c1C#N	false
CCC(CC)C(=O)Nc1sc2c(c1C#N)CCC(N(Cc1ccc(Cl)cc1Cl)C(C)C)C2 (stereo not drawn)	true
CCC(CC)C(=O)Nc1sc(-c2nc(Cc3ccc(Cl)cc3Cl)no2)c(C)c1C#N	true
CCC(CC)C(=O)Nc1sc2c(c1C#N)CCC(N(C)C1CCCc3ccccc31)C2 (single isomer, unassigned; form 2)	true

----------
Reported Vd by item:
assay-comment: Steady state volume distribution measured in mouse after intravenous administration of 1 mg/kg
Type: ADME, organism-based
Parameters: dose 1 mg/kg, route intravenous
protocol-conditions: in vivo, read-out: Vdss
reported-endpoint: Vd (L/kg)

molecule	reported-endpoint	units	recorded-value
CCC(CC)C(=O)Nc1sc(-c2nc(CC(C)C)no2)c(C)c1C#N	Vd	L/kg	16
CCC(CC)C(=O)Nc1sc(-c2nc(Cc3ccc(Cl)cc3Cl)no2)c(C)c1C#N	Vd	L/kg	8.7
CCC(CC)C(=O)Nc1sc2c(c1C#N)CCC(N(C)Cc1ccc(Cl)cc1Cl)C2 (stereo not drawn)	Vd	L/kg	3.4
